Items are presented alongside their recorded Incorporation Rate Ratios (dN/ddN).
- experimental target: E. coli DNA polymerase I (large fragment, Klenow fragment), wild type (Escherichia coli)
- Construct: The large fragment of E. coli DNA polymerase I, commonly called the Klenow fragment; made in house
- test name: Gel electrophoresis-based rate of incorporation of dideoxynucleotides relative to deoxynucleotides, varying the ratio of dNTPs to ddNTPs (Example 7)
- Format: biochemical
- measurement context: 10 µM 4 dNTPs, ddNTP 100 to 2,000 µM; ddNTP:dNTP ratio giving fragments comparable to E. coli DNA polymerase I F762Y, multiplied by its Example 6 ratio
Give only the figure.

INSERT INTO measurements (smiles_str, value_reported) VALUES
  ('Nc1ncnc2c1ncn2[C@H]1CC[C@@H](COP(=O)(O)OP(=O)(O)OP(=O)(O)O)O1', 720),
  ('Nc1ccn([C@H]2CC[C@@H](COP(=O)(O)OP(=O)(O)OP(=O)(O)O)O2)c(=O)n1', 250);

Now look at this entry.
Record `Nc1nc2c(ncn2[C@H]2CC[C@@H](COP(=O)(O)OP(=O)(O)OP(=O)(O)O)O2)c(=O)[nH]1` . Reported Incorporation Rate Ratios (dN/ddN): 140

###

Items are presented alongside their recorded Incorporation Rate Ratios (dN/ddN).
- experimental target: T7 DNA polymerase (28 amino acid deletion in the exonuclease domain, complexed with thioredoxin), tyrosine at residue 526 (WT) (Escherichia phage T7, UniProt P00581, DEL118-145)
- Construct: made in house; host or cells: strain that produces E. coli thioredoxin, lac promoter
- test name: Gel electrophoresis-based rate of incorporation of dideoxynucleotides relative to deoxynucleotides, 1:1 ratio of dNTPs to ddNTPs (Example 6)
- Format: biochemical, bacteriophage T7
- measurement context: stated to be the absolute ratios obtained in Example 6 (1:1 dNTPs to ddNTPs)
Give only the figure.

Previously resolved entries follow.
INSERT INTO measurements (smiles_str, value_reported) VALUES
  ('Nc1nc2c(ncn2[C@H]2CC[C@@H](COP(=O)(O)OP(=O)(O)OP(=O)(O)O)O2)c(=O)[nH]1', 3.2),
  ('Nc1ncnc2c1ncn2[C@H]1CC[C@@H](COP(=O)(O)OP(=O)(O)OP(=O)(O)O)O1', 3.3),
  ('Cc1cn([C@H]2CC[C@@H](COP(=O)(O)OP(=O)(O)OP(=O)(O)O)O2)c(=O)[nH]c1=O', 2.8);

Record `Nc1ccn([C@H]2CC[C@@H](COP(=O)(O)OP(=O)(O)OP(=O)(O)O)O2)c(=O)n1` . Reported Incorporation Rate Ratios (dN/ddN): 3.7

###

- experimental target: Taq DNA polymerase (unmodified DNA polymerase from Thermus aquaticus) (Thermus aquaticus)
recorded endpoint: IC50

Record `Nc1ncnc2c1ncn2[C@H]1CC[C@@H](COP(=O)(O)OP(=O)(O)OP(=O)(O)O)O1` . Reported IC50: > 500 µM

###

- experimental target: T7 DNA polymerase Y526F (Escherichia phage T7, UniProt P00581, DEL118-145/Y526F)
- test name: Inhibition of DNA synthesis on synthetic Primer-Template A, competition of dATP and ddATP (Example 9)
- measurement context: in the presence of 10 µM dATP, 37°C, read-out: [ddATP] for 50% inhibition
pIC50: −log10 of the molar value.
recorded endpoint: pIC50

Item `Nc1ncnc2c1ncn2[C@H]1CC[C@@H](COP(=O)(O)OP(=O)(O)OP(=O)(O)O)O1` was tested on T7 DNA polymerase Y526F (Escherichia phage T7, UniProt P00581, DEL118-145/Y526F); the reported pIC50 is < 3.30

###

- experimental target: E. coli DNA polymerase I (large fragment, Klenow fragment), wild type (Escherichia coli)
recorded endpoint: IC50

Record `Nc1ncnc2c1ncn2[C@H]1CC[C@@H](COP(=O)(O)OP(=O)(O)OP(=O)(O)O)O1` . Reported IC50: > 500 µM

###

- experimental target: Taq DNA polymerase F667Y (Thermus aquaticus, UniProt P19821, F667Y)
- Construct: to the gene that produces the full length Taq DNA polymerase; made in house
- test name: Gel electrophoresis-based rate of incorporation of dideoxynucleotides relative to deoxynucleotides, 1:1 ratio of dNTPs to ddNTPs (Example 6)
- Format: biochemical
- measurement context: absolute ratios obtained in Example 6 (1:1 dNTPs to ddNTPs)
recorded endpoint: Incorporation Rate Ratios (dN/ddN)

Previously resolved entries follow.
INSERT INTO assay_data (smiles_str, recorded_endpoint, value_reported) VALUES
  ('Nc1nc2c(ncn2[C@H]2CC[C@@H](COP(=O)(O)OP(=O)(O)OP(=O)(O)O)O2)c(=O)[nH]1', 'Incorporation Rate Ratios (dN/ddN)', 0.45),
  ('Nc1ncnc2c1ncn2[C@H]1CC[C@@H](COP(=O)(O)OP(=O)(O)OP(=O)(O)O)O1', 'Incorporation Rate Ratios (dN/ddN)', 0.59),
  ('Nc1ccn([C@H]2CC[C@@H](COP(=O)(O)OP(=O)(O)OP(=O)(O)O)O2)c(=O)n1', 'Incorporation Rate Ratios (dN/ddN)', 0.32);

Now look at this entry.
Record `Cc1cn([C@H]2CC[C@@H](COP(=O)(O)OP(=O)(O)OP(=O)(O)O)O2)c(=O)[nH]c1=O` . Reported Incorporation Rate Ratios (dN/ddN): 0.56

###

- experimental target: T7 DNA polymerase Y526F (Escherichia phage T7, UniProt P00581, DEL118-145/Y526F)
- Construct: made in house; host or cells: strain that produces E. coli thioredoxin (lac promoter)
- test name: Gel electrophoresis-based rate of incorporation of dideoxynucleotides relative to deoxynucleotides, varying the ratio of dNTPs to ddNTPs (Example 7)
- Type: biochemical, bacteriophage T7
- measurement context: 10 µM 4 dNTPs, ddNTP 100 to 2,000 µM; ddNTP:dNTP ratio giving fragments comparable to T7 DNA polymerase, multiplied by its Example 6 ratio
Items are presented alongside their recorded Incorporation Rate Ratios (dN/ddN).

Previously resolved entries follow.
INSERT INTO assay_data (compound, recorded_endpoint, value_reported) VALUES
  ('Nc1ccn([C@H]2CC[C@@H](COP(=O)(O)OP(=O)(O)OP(=O)(O)O)O2)c(=O)n1 [ddCTP]', 'Incorporation Rate Ratios (dN/ddN)', '11,000'),
  ('Cc1cn([C@H]2CC[C@@H](COP(=O)(O)OP(=O)(O)OP(=O)(O)O)O2)c(=O)[nH]c1=O [ddTTP]', 'Incorporation Rate Ratios (dN/ddN)', '8,400'),
  ('Nc1nc2c(ncn2[C@H]2CC[C@@H](COP(=O)(O)OP(=O)(O)OP(=O)(O)O)O2)c(=O)[nH]1 [ddGTP]', 'Incorporation Rate Ratios (dN/ddN)', '6,400');

Now look at this entry.
Record Nc1ncnc2c1ncn2[C@H]1CC[C@@H](COP(=O)(O)OP(=O)(O)OP(=O)(O)O)O1 [ddATP] . Reported Incorporation Rate Ratios (dN/ddN): 7,300

###

- experimental target: E. coli DNA polymerase I (Klenow fragment) F762Y (Escherichia coli, UniProt P00582, F762Y)
- Construct: The large fragment of E. coli DNA polymerase I, commonly called the Klenow fragment; made in house; T7 RNA polymerase promoter; purified by ion exchange chromatography
- test name: Gel electrophoresis-based rate of incorporation of dideoxynucleotides relative to deoxynucleotides, 1:1 ratio of dNTPs to ddNTPs (Example 6)
- Assay type: biochemical
- measurement context: absolute ratios obtained in Example 6 (1:1 dNTPs to ddNTPs)
- Description: The primary application of this test is to determine the absolute ratio of incorporation of a ddNMP to a dNMP for a DNA polymerase that efficiently incorporates dideoxynucleotides, such as T7 DNA polymerase, E. coli DNA polymerase I mutant F762Y or Taq DNA polymerase mutant F667Y. […]
recorded endpoint: Incorporation Rate Ratios (dN/ddN)
Give only the figure.

Previously resolved entries follow.
INSERT INTO assay_data (smiles_str, value_reported) VALUES
  ('Nc1ccn([C@H]2CC[C@@H](COP(=O)(O)OP(=O)(O)OP(=O)(O)O)O2)c(=O)n1', 0.75),
  ('Cc1cn([C@H]2CC[C@@H](COP(=O)(O)OP(=O)(O)OP(=O)(O)O)O2)c(=O)[nH]c1=O', 0.54),
  ('Nc1nc2c(ncn2[C@H]2CC[C@@H](COP(=O)(O)OP(=O)(O)OP(=O)(O)O)O2)c(=O)[nH]1', 0.56);

Now look at this entry.
Record `Nc1ncnc2c1ncn2[C@H]1CC[C@@H](COP(=O)(O)OP(=O)(O)OP(=O)(O)O)O1` . Reported Incorporation Rate Ratios (dN/ddN): 0.72

###

- experimental target: Taq DNA polymerase (unmodified DNA polymerase from Thermus aquaticus) (Thermus aquaticus, UniProt P19821)
- Construct: to the gene that produces the full length Taq DNA polymerase; made in house
- test name: Gel electrophoresis-based rate of incorporation of dideoxynucleotides relative to deoxynucleotides, varying the ratio of dNTPs to ddNTPs (Example 7)
- Format: biochemical
- measurement context: 10 µM 4 dNTPs, ddNTP 100 to 2,000 µM; ddNTP:dNTP ratio giving fragments comparable to Taq DNA polymerase F667Y, multiplied by its Example 6 ratio
Items are presented alongside their recorded Incorporation Rate Ratios (dN/ddN).

INSERT INTO results (smiles_str, value_reported) VALUES
  ('Nc1ccn([C@H]2CC[C@@H](COP(=O)(O)OP(=O)(O)OP(=O)(O)O)O2)c(=O)n1', '2,600'),
  ('Nc1ncnc2c1ncn2[C@H]1CC[C@@H](COP(=O)(O)OP(=O)(O)OP(=O)(O)O)O1', '4,700'),
  ('Cc1cn([C@H]2CC[C@@H](COP(=O)(O)OP(=O)(O)OP(=O)(O)O)O2)c(=O)[nH]c1=O', '4,500');

Now look at this entry.
Record `Nc1nc2c(ncn2[C@H]2CC[C@@H](COP(=O)(O)OP(=O)(O)OP(=O)(O)O)O2)c(=O)[nH]1` . Reported Incorporation Rate Ratios (dN/ddN): 1,400
